Sourced from paper PMC9382865

Test: 24-hour pharmacokinetics after the first oral dose of infigratinib 75 mg in patients with TIO
Format: in vivo
Settings: human, blood, Subject 2, single oral dose 75 mg
Metric name: Cmax (ng/mL)

Compound: CCN1CCN(c2ccc(Nc3cc(N(C)C(=O)Nc4c(Cl)c(OC)cc(OC)c4Cl)ncn3)cc2)CC1 [Infigratinib]
Metric name: Cmax
Unit name: ng/mL
Test result: 176

* * *

Assay: 24-hour pharmacokinetics after the first oral dose of infigratinib 75 mg in patients with TIO
Type: in vivo
Conditions: human, blood, Subject 3, single oral dose 75 mg

Compound: CCN1CCN(c2ccc(Nc3cc(N(C)C(=O)Nc4c(Cl)c(OC)cc(OC)c4Cl)ncn3)cc2)CC1 [Infigratinib]
half-life [h]: 3.02

* * *

Experiment: 24-hour pharmacokinetics after the first oral dose of infigratinib 75 mg in patients with TIO
Type: in vivo
Details: human, blood, Subject 4, single oral dose 75 mg

Compound smiles: CCN1CCN(c2ccc(Nc3cc(N(C)C(=O)Nc4c(Cl)c(OC)cc(OC)c4Cl)ncn3)cc2)CC1
Cmax [ng/mL]: 67.9

* * *

Assay: 24-hour pharmacokinetics after the first oral dose of infigratinib 75 mg in patients with TIO
Type: in vivo
Conditions: human, blood, Subject 2, single oral dose 75 mg
Metric name: Tmax (h)

Compound smiles: CCN1CCN(c2ccc(Nc3cc(N(C)C(=O)Nc4c(Cl)c(OC)cc(OC)c4Cl)ncn3)cc2)CC1
Metric name: Tmax
Test result: 2

* * *

Assay: 24-hour pharmacokinetics after the first oral dose of infigratinib 75 mg in patients with TIO
Type: in vivo
Conditions: human, blood, Subject 4, single oral dose 75 mg

Compound smiles: CCN1CCN(c2ccc(Nc3cc(N(C)C(=O)Nc4c(Cl)c(OC)cc(OC)c4Cl)ncn3)cc2)CC1
Unit name: h
half-life: 7.62

* * *

Assay: 24-hour pharmacokinetics after the first oral dose of infigratinib 75 mg in patients with TIO
Type: in vivo
Details: human, blood, Subject 4, single oral dose 75 mg

Compound smiles: CCN1CCN(c2ccc(Nc3cc(N(C)C(=O)Nc4c(Cl)c(OC)cc(OC)c4Cl)ncn3)cc2)CC1
Tmax: 6 h

* * *

Experiment: 24-hour pharmacokinetics after the first oral dose of infigratinib 75 mg in patients with TIO
Type: in vivo
Conditions: human, blood, Subject 4, single oral dose 75 mg
Metric name: AUC (ng·h/mL)

Compound: CCN1CCN(c2ccc(Nc3cc(N(C)C(=O)Nc4c(Cl)c(OC)cc(OC)c4Cl)ncn3)cc2)CC1 [Infigratinib]
Test result: 764

* * *

Test: 24-hour pharmacokinetics after the first oral dose of infigratinib 75 mg in patients with TIO
Assay type: in vivo
Conditions: human, blood, Subject 1, single oral dose 75 mg
Metric name: AUC (ng·h/mL)

Compound smiles: CCN1CCN(c2ccc(Nc3cc(N(C)C(=O)Nc4c(Cl)c(OC)cc(OC)c4Cl)ncn3)cc2)CC1
Test result: 89.7

* * *

Experiment: 24-hour pharmacokinetics after the first oral dose of infigratinib 75 mg in patients with TIO
Format: in vivo
Conditions: human, blood, Subject 2, single oral dose 75 mg

Compound smiles: CCN1CCN(c2ccc(Nc3cc(N(C)C(=O)Nc4c(Cl)c(OC)cc(OC)c4Cl)ncn3)cc2)CC1
half-life (h): 7.75

* * *

Assay: 24-hour pharmacokinetics after the first oral dose of infigratinib 75 mg in patients with TIO
Type: in vivo
Settings: human, blood, Subject 2, single oral dose 75 mg

Compound: CCN1CCN(c2ccc(Nc3cc(N(C)C(=O)Nc4c(Cl)c(OC)cc(OC)c4Cl)ncn3)cc2)CC1 [Infigratinib]
AUC [ng·h/mL]: 1090
